Source of measurements: patent CN111171150A

# Target or test system: T1, hTSLP1-m-His (human (homo sapiens), UniProt Q969D9 29-159)
# T1 construct: Long version of the human TSLP extracellular region, furin site deleted, His tag at the C-terminus, made in HEK293; also called hTSLP-m-his; not shown: C-terminal His tag
# Test description: competition ELISA on coated hTSLP1-m-his; competitor Tezepelumab-mIgG2a; HRP anti-human IgG
Experimental endpoint: binding result

H1A10+L3E8-M2-IgG1m3 (antibody, V domains shown, IgG1m3 version; also called L3E8人源化突变体(IgG1m3版本)) VH: QVQLVQSGAEVKKPGASVKVSCKASGYAFSNYWMNWVRQAPGQGLEWMGQIFPGDSDTDYDQKFQGRVTMTRDTSTSTVYMELSSLRSEDTAVYYCARAGYYRGYYAMDYWGQGTTVTVSS VL: EIVMTQSPATLSVSPGERATLSCSVSSSISSSNLHWYQQKPGQAPKPWIYGTSNLASGIPARFSGSGSGTEFTLTISSLQSEDFAVYYCQQWSSYPLTFGQGTKLEIK: binds
H1A10+L3E8-M4-IgG1m3 (antibody, V domains shown, IgG1m3 version; also called L3E8人源化突变体(IgG1m3版本)) VH: QVQLVQSGAEVKKPGASVKVSCKASGYAFSNYWMNWVRQAPGQGLEWMGQIFPGDSDTDYDQKFQGRVTMTRDTSTSTVYMELSSLRSEDTAVYYCARAGYYRGYYAMDYWGQGTTVTVSS VL: EIVMTQSPATLSVSPGERATLSCSVSSSISSSNLHWYQQKPGQAPRPWIYGTSNLASGIPARFSGSGSGTEFTLTISSMEAEDFAVYYCQQWSSYPLTFGQGTKLEIK: binds
H1A10+L3E8-M3-IgG1m3 (antibody, V domains shown, IgG1m3 version; also called L3E8人源化突变体(IgG1m3版本)) VH: QVQLVQSGAEVKKPGASVKVSCKASGYAFSNYWMNWVRQAPGQGLEWMGQIFPGDSDTDYDQKFQGRVTMTRDTSTSTVYMELSSLRSEDTAVYYCARAGYYRGYYAMDYWGQGTTVTVSS VL: EIVMTQSPATLSVSPGERATITCSVSSSISSSNLHWYQQKPGQAPRPWIYGTSNLASGIPARFSGSGSGTEFTLTISSLQSEDFAVYYCQQWSSYPLTFGQGTKLEIK: binds
H1A10+L3E8-M1-IgG1m3 (antibody, V domains shown, IgG1m3 version; also called L3E8人源化突变体(IgG1m3版本)) VH: QVQLVQSGAEVKKPGASVKVSCKASGYAFSNYWMNWVRQAPGQGLEWMGQIFPGDSDTDYDQKFQGRVTMTRDTSTSTVYMELSSLRSEDTAVYYCARAGYYRGYYAMDYWGQGTTVTVSS VL: EIVMTQSPATLSVSPGERATLSCSVSSSISSSNLHWYQQKPGQAPRPWIYGTSNLASGIPARFSGSGSGTEFTLTISSLQSEDFAVYYCQQWSSYPLTFGQGTKLEIK: binds
